- assayed-target: MeCP2-TBL1 interaction (MeCP2-SmBiT / TBL1-LgBiT) (Mus musculus, UniProt Q9QXE7)
- Construct: expressed in transfected cells; crude lysate used as a cell-free assay
- Sequence (Q9QXE7 166-527): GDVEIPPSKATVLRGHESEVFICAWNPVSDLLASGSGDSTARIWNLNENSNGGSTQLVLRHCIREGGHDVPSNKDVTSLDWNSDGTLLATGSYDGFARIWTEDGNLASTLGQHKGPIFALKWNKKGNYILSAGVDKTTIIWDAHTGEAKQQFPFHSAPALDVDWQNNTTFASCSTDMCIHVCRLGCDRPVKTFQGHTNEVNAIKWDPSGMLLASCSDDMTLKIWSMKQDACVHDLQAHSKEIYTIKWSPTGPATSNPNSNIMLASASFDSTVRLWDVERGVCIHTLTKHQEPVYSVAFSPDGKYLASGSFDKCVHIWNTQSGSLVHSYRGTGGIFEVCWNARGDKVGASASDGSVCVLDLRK
- test-protocol: MeCP2-TBL1 NanoLuc luciferase complementation assay (cell-free, extracts of transfected HEK293 cells);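 note: each compound tested at 20 µM final concentration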
- Type: binding, human
- assay-setup: primary screen of the Asinex library, sheet "Sargen output Asinex library", one well per compound
- Description: To facilitate the discovery of inhibitors of the interaction between MeCP2 and TBL1/TBLR1, we set out to devise a simple and scalable biochemical assay for measuring the interaction between these two proteins. We initially explored the possibility of screening compound libraries using a previously established fluorescence polarization assay that depends on purified recombinant TBL1/TBLR1[26]. […]
metric-name: Inhibition percent (%)

compound: COc1ccc(C2(C(=O)N3CCC(Cc4cccc5cccnc45)CC3)CCOCC2)cc1 [BDH_32344076]
measured-result: 3.92

compound: C[C@@H]1CC[C@@H]2[C@@H](O1)c1cc(OCc3ccccc3)c(CO)cc1OC2(C)C [BDG_34027487]
measured-result: -0.0357

compound: Cc1cccc(Cc2cccc(C3CCCN(C(=O)c4ccnc(N5CCOCC5)c4)C3)n2)c1 (stereo not shown) [BDH_32361750]
measured-result: -1.55

compound: COc1ccc([C@@H]2[C@H]3CCCC[C@@]3(O)CCN2CC(=O)Nc2ccc(N3CCOCC3)cc2)cc1 [BDH_33614948]
measured-result: 1.72

compound: Cc1cc(Oc2ccc(F)cc2)nc(C2CCCN(C(=O)c3cccc(Cn4ccnc4)c3)C2)n1 (stereo not shown) [BDH_32361331]
measured-result: 1.28

compound: Cn1c(CNC(=O)CN2[C@H](Cc3ccccc3)C[C@]3(C)NC(=O)CCC[C@H]23)nc2ccccc21 [BDH_33623014]
measured-result: -0.21

compound: COc1ccc([C@H]2CN(C)[C@@H]3CCN(C(=O)c4ccnc(Cc5ccccc5OC)c4)C[C@H]23)cc1 [BDH_33520255]
measured-result: -0.37

compound: COc1ccc([C@@H]2C[C@]3(C)NC(=O)CCC[C@@H]3N2CC(=O)NCc2nc3ccccc3n2C)cc1 [BDH_33623015]
measured-result: 0.43

compound: CC(=O)N[C@H]1C[C@@H](C(=O)N(C)C)N(CC(=O)NCc2ccc3[nH]c(C)c(C)c3c2)[C@H]1c1ccccc1 [BDH_33623462]
measured-result: -0.84

compound: CCn1cc(NC(=O)CN2[C@H](Cc3ccccc3)C[C@]3(C)NC(=O)CCC[C@H]23)c(C)n1 [BDH_33623813]
measured-result: -1.65

compound: CC(C)(C)OC(=O)N(Cc1ccccc1)C[C@@H]1C[C@H](O)[C@H](O)[C@H]1n1cnc2c(N)ncnc21 [BDH_34018090]
measured-result: -1.62

compound: C[C@]12C[C@@H](Cc3ccccc3)N(CC(=O)NCCc3nc4ccccc4[nH]3)[C@H]1CCCC(=O)N2 [BDH_33616100]
measured-result: -2.04

compound: O=C1CNC(=O)C2(C/C=C/C[C@H]3COCC[C@H]3N1)CCN(C(=O)/C=C/c1ccccc1)CC2 [BDH_33728358]
measured-result: -2.28

----------
- Tested on: PRKACA-PRKAR2A interaction (SmBiT-PRKACA / LgBiT-PRKAR2A), protein kinase A
- Set-up: NanoLuc complementation counter-screen in cell extract, PRKACA with PRKAR2A, loss of luminescence, detects NanoLuc interference
- assay-setup: counter-screen for NanoLuc interference; 0.5 h, 20 µM; inhibitor
metric-name: Inh (PKA) (%)

compound: Nc1ncn([C@@H]2O[C@H](CO)[C@@H](O)[C@H]2O)c(=O)n1
assayed-target: PRKACA-PRKAR2A interaction (SmBiT-PRKACA / LgBiT-PRKAR2A), protein kinase A
unit-of-measurement: %
measured-result: 1.069
//
compound: O=C1c2ccc(Nc3ccc(F)cc3F)cc2CCc2ccc(OC[C@H](O)CO)cc21 [UM0141631:01, Skepinone-L]
assayed-target: PRKACA-PRKAR2A interaction (SmBiT-PRKACA / LgBiT-PRKAR2A), protein kinase A
unit-of-measurement: %
measured-result: 17.25
//
compound: CCCC[S+]([O-])c1sc2nc(-c3cccs3)cc(-c3ccccc3)c2c1N (stereo not shown)
assayed-target: PRKACA-PRKAR2A interaction (SmBiT-PRKACA / LgBiT-PRKAR2A), protein kinase A
unit-of-measurement: %
measured-result: 33.39
//
compound: COC(=O)CC[C@H](NC(=O)[C@H](CC(=O)OC)NC(=O)OCc1ccccc1)C(=O)N[C@H](C(=O)N[C@@H](CC(=O)OC)C(=O)CF)C(C)C
assayed-target: PRKACA-PRKAR2A interaction (SmBiT-PRKACA / LgBiT-PRKAR2A), protein kinase A
unit-of-measurement: %
measured-result: 1.254
//
compound: Nc1ncnc2c1c(I)cn2[C@@H]1O[C@H](CO)[C@@H](O)[C@H]1O
assayed-target: PRKACA-PRKAR2A interaction (SmBiT-PRKACA / LgBiT-PRKAR2A), protein kinase A
unit-of-measurement: %
measured-result: 18.13
//
compound: CO[C@@H](C(=O)N1Cc2[nH]nc(NC(=O)c3ccc(N4CCN(C)CC4)cc3)c2C1)c1ccccc1
assayed-target: PRKACA-PRKAR2A interaction (SmBiT-PRKACA / LgBiT-PRKAR2A), protein kinase A
unit-of-measurement: %
measured-result: 4.91
//
compound: O=C1OC2(c3ccccc31)c1ccc(O)c(O)c1Oc1c2ccc(O)c1O
assayed-target: PRKACA-PRKAR2A interaction (SmBiT-PRKACA / LgBiT-PRKAR2A), protein kinase A
unit-of-measurement: %
measured-result: 24.58

----------
- Tested on: PRKACA-PRKAR2A interaction (SmBiT-PRKACA / LgBiT-PRKAR2A), protein kinase A
- Design: NanoLuc complementation counter-screen in cell extract, PRKACA with PRKAR2A, loss of luminescence, detects NanoLuc interference
- assay-setup: counter-screen for NanoLuc interference; 0.5 h, 20 µM; inhibitor
Measured Inh (PKA) of individual entries

compound: CCOC(CN1CCN(CC(C)C(=O)c2ccccc2)CC1)c1ccccc1 (stereo not shown) [UM0142356:01, Eprazinone 2HCl]
Inh (PKA): 5.222%
--
compound: Cc1cc(C(=O)NOCCO)c(Nc2ccc(I)cc2F)n(C)c1=O
Inh (PKA): 1.892%
--
compound: Cc1cc(OCc2nnc(SC3CCCC3)n2-c2cccnc2)ccc1-c1ccc(S(C)(=O)=O)cc1
Inh (PKA): 10.54%
--
compound: O=C1NC(=O)/C(=C\c2ccc3nccnc3c2)S1
Inh (PKA): 0.3149%

----------
- Tested on: PRKACA-PRKAR2A interaction (SmBiT-PRKACA / LgBiT-PRKAR2A), protein kinase A
- Set-up: NanoLuc complementation counter-screen in cell extract, PRKACA with PRKAR2A, loss of luminescence, detects NanoLuc interference
- assay-setup: counter-screen for NanoLuc interference; 0.5 h, 20 µM; inhibitor
Counter-ions that a name gives are not always drawn. Bridge positions count the residues as written; N and C are the ends. Square brackets hold non-standard residues; d marks the D form. Peptide text beside a SMILES is read from it. hArg = N=C(N)NCCCC[C@H](N)C(=O)O; Mpa = O=C(O)CCS
Measured Inh (PKA) of individual entries
metric-name: Inh (PKA) (%)

molecule: COc1ccc(C[C@H](N)C(=O)N[C@H]2[C@@H](O)[C@H](n3cnc4c(N(C)C)ncnc43)O[C@@H]2CO)cc1 [UM0142790:01, Puromycin dihydrochloride]
measured-result: -1.723

molecule: O=c1cc(-c2ccc(O)c(O)c2)oc2cc(O)cc(O)c12 [UM0133934:02, Luteolin]
measured-result: 25.55

molecule: C[C@]12CC[C@H](O)CC1=CC[C@@H]1[C@@H]2CC[C@]2(C)C(c3cccnc3)=CC[C@@H]12 [UM0141772:01, Abiraterone]
measured-result: 5.429

molecule: N=C(N)NCCCC[C@@H]1NC(=O)CCSSC[C@@H](C(N)=O)NC(=O)[C@@H]2CCCN2C(=O)[C@H](Cc2c[nH]c3ccccc23)NC(=O)[C@H](CC(=O)O)NC(=O)CNC1=O [UM0142520:01, Eptifibatide] ([Mpa][hArg]GDWPC-NH2; disulfide 1-7)
measured-result: -0.06094

molecule: N#C/C(=C(/N)Sc1ccc(N)cc1)c1ccccc1C(F)(F)F [UM0127888:02, SL-327]
measured-result: 49.94

molecule: C[C@@H](Oc1cc(-c2cnn(C3CCNCC3)c2)cnc1N)c1c(Cl)ccc(F)c1Cl [UM0141505:01, (R)-Crizotinib]
measured-result: 10.35

molecule: N#Cc1ccc2[nH]c(O)c(-c3ccc(CN4CCOCC4)cn3)c2c1 [UM0142298:01, AZD1080]
measured-result: 15.47

molecule: O=c1c(O)c(-c2cc(O)c(O)c(O)c2)oc2cc(O)cc(O)c12 [UM0133944:02, Myricetin]
measured-result: 47.98

molecule: CC(C)(C#N)c1cc(Cn2cncn2)cc(C(C)(C)C#N)c1 [UM0142230:01, Anastrozole]
measured-result: 5.113

molecule: CCN(CC)CCNC(=O)c1c(C)[nH]c(/C=C2\C(=O)Nc3ccc(F)cc32)c1C [UM0141973:01, Sunitinib malate]
measured-result: 55.62

molecule: Cn1c(CCCC(=O)O)nc2cc(N(CCCl)CCCl)ccc21 [UM0141439:01, Bendamustine HCl]
measured-result: -0.1879

molecule: CC1(COc2ccc3c(c2)ncn3-c2ccc3cccc(N4CCC(N)CC4)c3n2)COC1 [UM0139425:02, Crenolanib (CP-868596)]
measured-result: 13.43

molecule: CC(C)OC(=O)[C@H](C)N[P@](=O)(OC[C@H]1O[C@@H](n2ccc(=O)[nH]c2=O)[C@](C)(F)[C@@H]1O)Oc1ccccc1 [UM0141610:01, PSI-7977]
measured-result: 2.04

molecule: COc1ccc(S(=O)(=O)N(C(C)=O)c2ccccc2/C=C/c2cc[n+]([O-])cc2)cc1 [UM0141887:01, HMN-214]
measured-result: 4.215

molecule: Clc1ccc2c(c1)C(N1CCNCC1)=Nc1ccccc1O2 [UM0133517:02, Amoxapine]
measured-result: 7.389

molecule: Cc1cn([C@@H]2C[C@@H](O)[C@H](CO)O2)c(=O)[nH]c1=O [UM0142074:01, Telbivudine]
measured-result: -0.434

molecule: Cc1nnc(C(=O)NC(C)(C)c2nc(C(=O)NCc3ccc(F)cc3)c(O)c(=O)n2C)o1 [UM0141693:01, Raltegravir (MK-0518)]
measured-result: 1.324

molecule: CC[C@H](C)C(=O)O[C@H]1C[C@@H](C)C=C2C=C[C@H](C)[C@H](CC[C@@H]3C[C@@H](O)CC(=O)O3)[C@H]21 [UM0133001:02, Lovastatin]
measured-result: 15.39

molecule: CC(C)[C@H](CO)Nc1nc(Nc2ccc(C(=O)O)c(Cl)c2)c2ncn(C(C)C)c2n1 [UM0142090:01, Purvalanol B]
measured-result: 25.51

molecule: COc1cc(N2CCOCC2)ccc1NC(=O)c1csc(-c2cccnc2)n1 [UM0141564:01, IRAK inhibitor 6]
measured-result: 6.368

molecule: CC(C)(C)Cn1c(N)nc2ccc(-c3[nH]c(C(C)(C)C)nc3-c3ccc(F)cc3)nc21 [UM0141895:01, LY2228820]
measured-result: 34.84

molecule: CC(C)(O)c1coc(S(=O)(=O)NC(=O)Nc2c3c(cc4c2CCC4)CCC3)c1 [UM0142816:01, MCC950 sodium]
measured-result: -1.906

molecule: NCC(=O)Nc1ccc(-n2nc(C(F)(F)F)cc2-c2ccc3c(ccc4ccccc43)c2)cc1 [UM0141487:01, OSU-03012 (AR-12)]
measured-result: 5.116

molecule: CN(C)c1ccc(-c2nc3ncc(Cl)c(N4CCN(CC(=O)Nc5nccs5)CC4)c3[nH]2)cc1 [UM0141726:01, CCT129202]
measured-result: 76.32

molecule: OCc1ccc(-c2ccc(-c3ccc(CO)s3)o2)s1 [UM0141761:01, RITA (NSC 652287)]
measured-result: 10.18

molecule: COc1ccnc(C[S+]([O-])c2nc3cc(OC(F)F)ccc3[nH]2)c1OC (stereo not drawn) [UM0121277:03, Pantoprazole]
measured-result: -0.2371

molecule: N#Cc1ccc(OC2CCC(NC(=O)CCSc3nc4ccccc4c(=O)[nH]3)CC2)cc1 (stereo not drawn) [UM0142092:01, Tankyrase Inhibitors (TNKS) 49]
measured-result: 5.667
